System: HEK-293T
experiment_notes: Multiplex assay against HEK293T
Format: toxicity, cell-based
run_parameters: human, 48 h, 10 µM, compound concentration 10 uM, replicate 2
measured_endpoint: Population Mitochondria Different-Phenotype (%)
Answers are plain numbers, in %.

Below are worked cases with known answers.
> print(dat)
                                   compound  subject.of.test  unit.tag  test.value
1  C1=N/C2=N/c3ccc(OCCN4CCCC4)c(c3)COC/C=C\COCc3cccc(c3)C(=C1)N2         HEK-293T         %          81
2  COc1cc(N2CCC(N(C)C)CC2)ccc1Nc1ncc(Cl)c(Nc2ccccc2P(C)(C)=O)n1         HEK-293T         %          90
3  CC(=O)c1cc(-c2cc(C(=O)NC3CC3)ccc2C)c2ncccn12         HEK-293T         %          29

Consider the record given below.
Please indicate Population Mitochondria Different-Phenotype (%) recorded for CC(C)Oc1ccc(C(=O)N[C@H](CNC(=O)CN(C)C)Cc2ccc(-c3cn4cccc([C@H](C)O)c4n3)cc2)cc1Cl [GSK-923295A] 86

====

System: U2OS
experiment_notes: Incucyte cell viability with U2OS; further: filed as whole numbers so only -1 and 0 and 1 occur
Format: toxicity, cell-based
run_parameters: human, 24 h, 10 µM, compound concentration 10 uM, replicate number 1, timepoint 24 hours
measured_endpoint: Growth Rate
One number for each entry.

Please state Growth Rate for every compound in the list that follows.
1. CN(C)CC[C@@H](c1ccc(Cl)cc1)c1ccccn1.O=C(O)/C=C\C(=O)O [DEXCHLORPHENIRAMINE MALEATE]
2. O=C(NCc1ccc(F)cc1)C1CCN(S(=O)(=O)c2cc(Cl)cc(Cl)c2)CC1
3. CCC(=O)O[C@]1(C(=O)SCF)[C@H](C)C[C@H]2[C@@H]3C[C@H](F)C4=CC(=O)C=C[C@]4(C)[C@@]3(F)[C@@H](O)C[C@@]21C [FLUTICASONE PROPIONATE]
4. Clc1cc2c(NC3CCCC3)nnc(-c3ccncc3)c2cc1Cl
5. CN(C)CCOc1ccc(-c2nc(-c3ccncc3)c(-c3ccc4c(c3)CC/C4=N\O)[nH]2)cc1
6. CC(C)Oc1ccc(C(=O)N[C@H](CNC(=O)CN(C)C)Cc2ccc(-c3cn4cccc([C@H](C)O)c4n3)cc2)cc1Cl [GSK-923295A]
7. CCCn1c(=O)c2[nH]c(C34CC5CC(CC3C5)C4)nc2n(CCC)c1=O

1
0
1
0
0
0
1

====

System: Fibroblast
experiment_notes: Multiplex assay against human fibroblast
Type: toxicity, cell-based
run_parameters: 24 h, 10 µM, compound concentration 10 uM, replicate 1
If the reported Population Mitotic Cells (%) equals or exceeds 30%, assign True. If not, assign False.

molecule	answer_label
COc1cc2c(Nc3ccc(NC(=O)c4ccccc4)cc3)ncnc2cc1OCCCN1CCOCC1	False
CN(C)CCOc1ccc(-c2nc(-c3ccncc3)c(-c3ccc4c(c3)CC/C4=N\O)[nH]2)cc1	True
c1ccc2oc(-c3csc(C4CCN(Cc5nc6ncccc6[nH]5)CC4)n3)cc2c1	False

Dear colleague, could you confirm whether N#Cc1cnc(Nc2cc(NC[C@H]3CNCCO3)c(C(F)(F)F)cn2)cn1 has Population Mitotic Cells (%) at or above 30%? False

Dear colleague, could you confirm whether CCOc1cc(N2CCC(O)CC2)ccc1Nc1ncc2c(n1)N(C1CCCC1)CCC(=O)N2C has Population Mitotic Cells (%) at or above 30%? True

Dear colleague, could you confirm whether CNC(=O)c1cc(Oc2ccc(NC(=O)Nc3cc(C(C)(C)C)nn3-c3ccc4ncccc4c3)c(F)c2)ccn1 has Population Mitotic Cells (%) at or above 30%? True

Dear colleague, could you confirm whether CCC(=O)O[C@]1(C(=O)SCF)[C@H](C)C[C@H]2[C@@H]3C[C@H](F)C4=CC(=O)C=C[C@]4(C)[C@@]3(F)[C@@H](O)C[C@@]21C [FLUTICASONE PROPIONATE] has Population Mitotic Cells (%) at or above 30%? True

Dear colleague, could you confirm whether Cc1cn(-c2cc(NC(=O)c3ccc4c(c3)CN(c3cncnc3)C[C@@H]4C)cc(C(F)(F)F)c2)cn1 has Population Mitotic Cells (%) at or above 30%? True

Dear colleague, could you confirm whether CCOc1cc2ncc(C#N)c(Nc3ccc(OCc4cccc(F)c4)c(Cl)c3)c2cc1NC(=O)/C=C/CN(C)C has Population Mitotic Cells (%) at or above 30%? False

====

System: U2OS
experiment_notes: Multiplex assay against U2OS
Type: toxicity, cell-based
run_parameters: human, 12 h, 1 µM, compound concentration 1 uM, replicate 1
What Total Cell Count was measured for each of the following?
One number for each entry.

> print(dat)
                                   molecule  measured.endpoint  test.value
1  Cl.Cl.Nc1ncnc2c1c(-c1cccc(OCc3ccccc3)c1)cn2[C@H]1C[C@@H](CN2CCC2)C1   Total Cell Count         176
2  CC(C)Oc1ccc(C(=O)N[C@H](CNC(=O)CN(C)C)Cc2ccc(-c3cn4cccc([C@H](C)O)c4n3)cc2)cc1Cl [GSK-923295A]   Total Cell Count         253
3  Cl.Cl.NC1(c2ccc(-c3nc4ccn5c(=O)[nH]nc5c4cc3-c3ccccc3)cc2)CCC1   Total Cell Count         154
4  Cc1nc(Cc2cccc(C(F)(F)F)c2)sc1-c1ccc(C(N)=O)nc1 [TP-024n]   Total Cell Count         159
5  CNC(=O)c1cc(Oc2ccc(NC(=O)Nc3cc(C(C)(C)C)nn3-c3ccc4ncccc4c3)c(F)c2)ccn1   Total Cell Count         164

Please state Total Cell Count for every molecule in the list that follows.
1. Nc1nc2c(c(N3CCNCC3)n1)CCC1=C2[C@@H]2CCCC[C@@H]2O1
2. CC(=O)c1cc(-c2cc(C(=O)NC3CC3)ccc2C)c2ncccn12
3. CC(C)(C)c1cnc(CSc2cnc(NC(=O)C3CCNCC3)s2)o1
4. Nc1ccc(C(=O)Nc2cccc(-c3nc(N4CCOCC4)c4oc5ncccc5c4n3)c2)cn1
5. CN(C)CCOc1ccc(-c2nc(-c3ccncc3)c(-c3ccc4c(c3)CC/C4=N\O)[nH]2)cc1
6. COc1cc2c(NC3CCN(C(C)C)CC3)nc(N3CCC(F)(F)CC3)nc2cc1OCCCN1CCCC1

1: 167; 2: 108; 3: 140; 4: 215; 5: 200; 6: 136

Please state Total Cell Count for every molecule in the list that follows.
1. CNC(=O)c1nn(C)c2c1C(C)(C)Cc1cnc(Nc3ccc(N4CCN(C)CC4)cc3)nc1-2
2. O=C(O)c1ccc2cc(-c3ccc(O)c(C45CC6CC(CC(C6)C4)C5)c3)ccc2c1

1. 194
2. 98

====

What Population Mitochondria Different-Phenotype (%) was measured for each of the following?
Tested on: U2OS
experiment_notes: Multiplex assay against U2OS
Format: toxicity, cell-based
run_parameters: human, 24 h, 1 µM, compound concentration 1 uM, replicate 2
Numbers only, in %.

> print(dat)
                                   molecule  unit.tag  test.value
1  CCOc1cc2ncc(C#N)c(Nc3ccc(OCc4cccc(F)c4)c(Cl)c3)c2cc1NC(=O)/C=C/CN(C)C         %          23
2  CCn1c(-c2nonc2N)nc2cnc(Oc3cccc(NC(=O)c4ccc(OCCN5CCOCC5)cc4)c3)cc21 [GSK-269962A]         %          10
3  Cc1cc2c(cc1N1C(=O)c3cccc4c(CCCO)ccc(c34)C1=O)n(C)c(=O)n2C         %          27

Please state Population Mitochondria Different-Phenotype (%) for every molecule in the list that follows.
1. CN(C)CCOc1ccc(-c2nc(-c3ccncc3)c(-c3ccc4c(c3)CC/C4=N\O)[nH]2)cc1
2. Cc1cn(-c2cc(NC(=O)c3ccc4c(c3)CN(c3cncnc3)C[C@@H]4C)cc(C(F)(F)F)c2)cn1
3. COc1cc2c(Nc3ccc(NC(=O)c4ccccc4)cc3)ncnc2cc1OCCCN1CCOCC1
4. c1ccc2oc(-c3csc(C4CCN(Cc5nc6ncccc6[nH]5)CC4)n3)cc2c1
5. CC(C)Oc1ccc(C(=O)N[C@H](CNC(=O)CN(C)C)Cc2ccc(-c3cn4cccc([C@H](C)O)c4n3)cc2)cc1Cl [GSK-923295A]

41
26
43
24
22

====

Test system: Fibroblast
experiment_notes: Multiplex assay against human fibroblast
Format: toxicity, cell-based
run_parameters: 48 h, 1 µM, compound concentration 1 uM, replicate 2
If the reported Population Normal (%) equals or exceeds 80%, assign Yes. If not, assign No.

Previously resolved entries follow.
molecule	answer_label
CNc1oc(-c2cccc3ccccc23)nc1C#N	No
CCc1cc2c(cc1CC)CC(NC[C@H](O)c1ccc(O)c3[nH]c(=O)ccc13)C2	Yes
Nc1ccc(C(=O)Nc2cccc(-c3nc(N4CCOCC4)c4oc5ncccc5c4n3)c2)cn1	No

Dear colleague, could you confirm whether O=C(O)c1ccc2cc(-c3ccc(O)c(C45CC6CC(CC(C6)C4)C5)c3)ccc2c1 has Population Normal (%) at or above 80%? Yes

Dear colleague, could you confirm whether CCC(=O)O[C@]1(C(=O)SCF)[C@H](C)C[C@H]2[C@@H]3C[C@H](F)C4=CC(=O)C=C[C@]4(C)[C@@]3(F)[C@@H](O)C[C@@]21C [FLUTICASONE PROPIONATE] has Population Normal (%) at or above 80%? Yes

Dear colleague, could you confirm whether COc1ccc(NS(=O)(=O)c2sc3ccc(Cl)cc3c2C)cc1N1CCNCC1.Cl has Population Normal (%) at or above 80%? No

Dear colleague, could you confirm whether Cc1cc2c(cc1N1C(=O)c3cccc4c(CCCO)ccc(c34)C1=O)n(C)c(=O)n2C has Population Normal (%) at or above 80%? Yes
